System: HCT116 colon cell carcinoma
Test: Relative colony forming efficiency after antisense treatment (Table 13)
Format: cell-based, human
Settings: 0.2 μM antisense oligodeoxyribonucleotide phosphorothioate; HCT116 cells; averages of 2-8 determinations
Strand notation (5' to 3'): a small letter for the sugar, then the base; units joined by * are phosphorothioate-linked, units joined directly phosphodiester-linked; [ ] holds rarer units or linkages, { } end groups; capitals alone tell only the bases. d = 2'-deoxy (DNA)
metric: Reduced relative colony forming efficiency, expressed as % inhibition, HCT116 (%)

INSERT INTO results (substance, test_result) VALUES
  ('TTCTGGCAAAAGGTGATACT (DNA, all phosphorothioate, methylation of C not given here) [AS-II-1538-20]', 51.28),
  ('GCAGCGAAGCAGAGCGAGCA (antisense dG*dC*dA*dG*dC*dG*dA*dA*dG*dC*dA*dG*dA*dG*dC*dG*dA*dG*dC*dA) [AS-II-166-20]', 73.84),
  ('GsCGsAAGsCAGsAGCsGAGsCAGCsC (antisense dG*dCdG*dAdAdG*dCdAdG*dAdGdC*dGdAdG*dCdAdGdC*dC) [AS-II-163-20]', 29.05);

====

Test system: MIA PaCa-2 pancreatic cell carcinoma
Test: Relative colony forming efficiency after antisense treatment (Table 13)
Format: cell-based, human
Details: 0.2 μM antisense oligodeoxyribonucleotide phosphorothioate; MIA PaCa-2 cells; averages of 2-8 determinations
Strand notation (5' to 3'): a small letter for the sugar, then the base; units joined by * are phosphorothioate-linked, units joined directly phosphodiester-linked; [ ] holds rarer units or linkages, { } end groups; capitals alone tell only the bases. d = 2'-deoxy (DNA)
Classification field: 1 = Reduced relative colony forming efficiency, expressed as % inhibition, MIA PaCa-2 at or over 80%; -1 = Reduced relative colony forming efficiency, expressed as % inhibition, MIA PaCa-2 under 80%.

INSERT INTO results (substance, discrete_label) VALUES
  ('TCGCCTACTCTCTTCTCAAA (DNA, all phosphorothioate, methylation of C not given here) [AS-II-1278-20]', -1),
  ('CACACAACCTACTTACACCA (antisense; DNA, all phosphorothioate, methylation of C not given here) [AS-II-2372-20]', 1),
  ('TTCTCTTACTCTCTCCTCCG (DNA, all phosphorothioate, methylation of C not given here) [AS-II-1048-20]', -1),
  ('TCCTTTATCCCACAACACTC (antisense; DNA, all phosphorothioate, methylation of C not given here) [AS-II-2067-20]', -1),
  ('GCAAAGAAAGCCAGAACATG (dG*dC*dA*dA*dA*dG*dA*dA*dA*dG*dC*dC*dA*dG*dA*dA*dC*dA*dT*dG; antisense) [AS-II-579-20]', 1),
  ('TTGTGTACCAGGTGTTTGAA (DNA, all phosphorothioate, methylation of C not given here) [AS-II-1023-20]', -1),
  ('AAAAATCAGCCAAGTAAGGG (DNA, all phosphorothioate, methylation of C not given here) [AS-II-1381-20]', -1),
  ('GTAAGTCACAGCCAGCCAGG (DNA, all phosphorothioate, methylation of C not given here) [AS-II-1560-20]', 1),
  ('ATCCAGCGCAAGGCCCAGTC (antisense; DNA, all phosphorothioate, methylation of C not given here) [AS-II-816-20]', 1),
  ('GCGAGCGGGACACGGAGGGA (dG*dC*dG*dA*dG*dC*dG*dG*dG*dA*dC*dA*dC*dG*dG*dA*dG*dG*dG*dA; antisense) [AS-II-201-20]', -1),
  ('GsCGsAAGsCAGsAGCsGAGsCAGCsC (antisense dG*dCdG*dAdAdG*dCdAdG*dAdGdC*dGdAdG*dCdAdGdC*dC) [AS-II-163-20]', -1),
  ('CGGAGGGAGAGCATAGTGGA (dC*dG*dG*dA*dG*dG*dG*dA*dG*dA*dG*dC*dA*dT*dA*dG*dT*dG*dG*dA; antisense) [AS-II-189-20]', -1),
  ('GCTATTATCGCCGCCGTGAG (DNA, all phosphorothioate, methylation of C not given here) [AS-II-1773-20]', -1);
